Test: The drug is tested on Z-025 corresponding to rabbit gut metagenome with ENA study accession number: PRJEB37062 and ENA sample accession number: ERS12561824 for biotransformation under anaerobic condition. The drug concentrations were measured over 9 timepoints collected between 0 and 24 hours of incubation by liquid-chromatography-coupled mass spectrometry (LC–MS); note: call rule not given here
Details: 2 µM

compound: NC(CO)(CO)CO.O=C(c1ccccc1)c1ccc2n1CCC2C(=O)O (stereo not drawn)
Bacterial Biotransformation: Compound NOT metabolized
//
compound: CNS(=O)(=O)Cc1ccc2[nH]cc(CCN(C)C)c2c1.O=C(O)CCC(=O)O [SUMATRIPTAN SUCCINATE]
Bacterial Biotransformation: Compound NOT metabolized
//
compound: CN1CCN(C(=O)O[C@H]2c3nccnc3C(=O)N2c2ccc(Cl)cn2)CC1
Bacterial Biotransformation: Compound NOT metabolized
//
compound: COc1ccc2[nH]c([S+]([O-])Cc3ncc(C)c(OC)c3C)nc2n1 (stereo not drawn)
Bacterial Biotransformation: Compound metabolized
//
compound: CNCCC(Oc1ccc(C(F)(F)F)cc1)c1ccccc1 (stereo not drawn)
Bacterial Biotransformation: Compound NOT metabolized
//
compound: CN(C)C(=O)C(CCN1CCC(O)(c2ccc(Cl)cc2)CC1)(c1ccccc1)c1ccccc1 [LOPERAMIDE]
Bacterial Biotransformation: Compound metabolized
//
compound: COc1cc2nc(N3CCN(C(=O)c4ccco4)CC3)nc(N)c2cc1OC
Bacterial Biotransformation: Compound NOT metabolized
//
compound: CCCc1nc(C(C)(C)O)c(C(=O)OCc2oc(=O)oc2C)n1Cc1ccc(-c2ccccc2-c2nnn[nH]2)cc1
Bacterial Biotransformation: Compound metabolized

###

Conditions: human gut metagenome, 24 h, 2 µM
propertyName: Bacterial Biotransformation

compound: OC(CCN1CCCCC1)(c1ccccc1)C1CC2C=CC1C2 (configuration not stated) [BIPERIDEN]
readoutValue: Compound NOT metabolized
//
compound: CN(C)CCC=C1c2ccccc2C=Cc2ccccc21 [CYCLOBENZAPRINE]
readoutValue: Compound metabolized
//
compound: CC(=O)OCC(=O)[C@@]12N=C(C)O[C@@H]1C[C@H]1[C@@H]3CCC4=CC(=O)C=C[C@]4(C)[C@H]3[C@@H](O)C[C@@]12C [DEFLAZACORT]
readoutValue: Compound metabolized
//
compound: NC12CC3CC(CC(C3)C1)C2 [AMANTADINE]
readoutValue: Compound NOT metabolized
//
compound: CC(CN(C)C)CN1c2ccccc2CCc2ccccc21.O=C(O)/C=C\C(=O)O (configuration not stated) [TRIMIPRAMINE MALEATE]
readoutValue: Compound NOT metabolized
//
compound: Nc1nc2ccc(OC(F)(F)F)cc2s1 [RILUZOLE]
readoutValue: Compound metabolized
//
compound: Br.CN(C)CCCC1(c2ccc(F)cc2)OCc2cc(C#N)ccc21 (configuration not stated) [CITALOPRAM HYDROBROMIDE]
readoutValue: Compound metabolized
//
compound: CCCCCOC(=O)Nc1nc(=O)n([C@@H]2O[C@H](C)[C@@H](O)[C@H]2O)cc1F [CAPECITABINE]
readoutValue: Compound metabolized
//
compound: CC(=O)O[C@]1(C(C)=O)CC[C@H]2[C@@H]3C=C(Cl)C4=CC(=O)[C@@H]5C[C@@H]5[C@]4(C)[C@H]3CC[C@@]21C [CYPROTERONE ACETATE]
readoutValue: Compound metabolized
//
compound: CC(O)(CS(=O)(=O)c1ccc(F)cc1)C(=O)Nc1ccc(C#N)c(C(F)(F)F)c1 (configuration not stated) [BICALUTAMIDE]
readoutValue: Compound NOT metabolized
//
compound: O=C1NCC2(CCN(CCc3ccccc3)CC2)O1 [FENSPIRIDE]
readoutValue: Compound NOT metabolized
//
compound: CN(C(=O)CN(CCO)CC(=O)N(C)C(C)(C)Cc1ccccc1)C(C)(C)Cc1ccccc1 [OXETHAZAINE]
readoutValue: Compound metabolized
//
compound: Cc1nc(-c2ccc(OCC(C)C)c(C#N)c2)sc1C(=O)O [FEBUXOSTAT]
readoutValue: Compound metabolized
//
compound: O=c1[nH]c2ccccc2n1C1CCN(CCCC(c2ccc(F)cc2)c2ccc(F)cc2)CC1 [PIMOZIDE]
readoutValue: Compound metabolized
//
compound: CC(C)(C(=O)O)c1ccc(C(O)CCCN2CCC(C(O)(c3ccccc3)c3ccccc3)CC2)cc1 (configuration not stated) [FEXOFENADINE]
readoutValue: Compound NOT metabolized
//
compound: COc1ccccc1OCC(O)COC(N)=O (configuration not stated) [METHOCARBAMOL]
readoutValue: Compound NOT metabolized
//
compound: CCCc1nc2c(C)cc(-c3nc4ccccc4n3C)cc2n1Cc1ccc(-c2ccccc2C(=O)O)cc1
readoutValue: Compound metabolized

Reference source: ChEMBL document CHEMBL5724914
